# credit: PubChem BioAssay

In this section, each of the compounds is paired with its reported score.
Assay: suppressors of polyQ aggregation in yeast, 75Q-TubU reporter (AID 1593)
Conditions: Yeast 75Q polyglutamine aggregation reporter

If you can, please state the reported score value of CCCN(CCC)S(=O)(=O)c1ccc(C(=O)O)cc1 .
0.68

Please answer likewise for CCCCNc1cc(C(=O)O)cc(S(N)(=O)=O)c1Oc1ccccc1
1.19

Please answer likewise for COC1=CC(=O)C[C@@H](C)[C@]12Oc1c(Cl)c(OC)cc(OC)c1C2=O
1

Please answer likewise for COc1ccc(OC)c(C(O)CNC(=O)CN)c1 (stereo unspecified)
1.3

Please answer likewise for NC(=O)N1c2ccccc2C=Cc2ccccc21
1.24

Please answer likewise for CC12CC3CC(C)(C1)CC(N)(C3)C2
1.59

Turning to the following compound.
If you can, please state the reported score value of CCN(CC)CCCC(C)Nc1c2ccc(Cl)cc2nc2ccc(OC)cc12 (stereo unspecified) .
0.79

---

Experiment: kinase inhibitors against Plasmodium liver-stage infection, cell-based, known kinase inhibitor set, luminescence, hepatoma host viability (AID 624392);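 also: infected cells incubated roughly two days before readout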
Conditions: Plasmodium liver stage in hepatoma cells, luciferase luminescence, concentration not given here; stronger effect = lower value
Active and inactive are the calls of the source. The rule behind the calls is not given here.
In this section, each of the molecules is paired with its reported parasite % of control.

// solved cases for parasite % of control follow
If you can, please state the reported parasite % of control value of Cn1cc(C2=C(c3ccc(N)cc3)C(=O)NC2=O)c2ccccc21 .
32.1% (inactive)

Please answer likewise for CC(=O)Nc1ccc2c(c1)C(c1ccccc1Cl)=Nc1c(n[nH]c1C)N2
30.4% (inactive)

Please answer likewise for Nc1c(C(=O)c2cccc(C#CCO)c2)cnn1-c1ccc(F)cc1
58.9% (inactive)

Please answer likewise for Cn1cc(C2=C(NN3CCOCC3)C(=O)NC2=O)c2ccccc21
52.1% (inactive)

Please answer likewise for c1cc(-c2cnn3nc(N4CCOCC4)ccc23)nc(NC2CC2)n1
177% (inactive)

***
If you can, please state the reported parasite % of control value of O=C1NC(=NCc2ccccn2)SC1=Cc1ccc2ncccc2c1 .
37.5% (inactive)

Please answer likewise for Cc1cc(O)cc(C)c1/C=C/c1cncc(C(=O)OC(C)(C)C)c1
116% (inactive)

Please answer likewise for CN1CCN(C(=O)c2ccc(NC(=O)Nc3ccc(N(C)c4ccnc(Nc5ccc(CS(C)(=O)=O)cc5)n4)cc3)cc2)CC1
77.1% (inactive)

Please answer likewise for OCc1ccc(-c2nc(-c3ccc4c(c3)OCO4)c(-c3ccccn3)[nH]2)cc1
115% (inactive)

Please answer likewise for CC(=O)NC(Cc1ccc(OP(=O)(O)O)cc1)C(=O)NC1CCC(=O)N2CCCC(C(=O)Nc3cccc4ccccc34)N2C1=O (configuration not stated)
47% (inactive)

Please answer likewise for CCn1c(-c2nonc2N)nc2ccncc21
98.3% (inactive)

Please answer likewise for Nc1c(C(=O)c2ccc(-c3cccnc3)cc2)cnn1-c1ccc(F)cc1
36.7% (inactive)

Please answer likewise for Cn1c(=O)c(Oc2ccc(F)cc2F)cc2cnc(NC3CCS(=O)(=O)CC3)nc21
43.3% (inactive)

Please answer likewise for Cn1c(=O)c(-c2ccccc2Cl)cc2cnc(NC3CCOCC3)nc21
252% (inactive)

Please answer likewise for CCn1c(-c2nonc2N)nc2c(C#CC(C)(C)O)ncc(OC3CCNCC3)c21
13.9% (active)

Please answer likewise for COc1cc(F)c(F)cc1C(=O)c1cnc(NC2CCN(S(C)(=O)=O)CC2)nc1N
392% (inactive)

Please answer likewise for NS(=O)(=O)c1ccc(Nc2ncc(-c3ccccc3)o2)cc1
123% (inactive)

Please answer likewise for O=C1NC(=O)C(c2ccc(Cl)cc2)=C1Nc1ccc(Cl)c(C(=O)O)c1
127% (inactive)

Please answer likewise for C#Cc1cccc(Nc2ncnc3ccc(OCCCCNCCS(C)(=O)=O)cc23)c1
197% (inactive)

Please answer likewise for COc1ccc(COc2ccc(Cc3cnc(N)nc3N)cc2OC)cc1
45.5% (inactive)

Please answer likewise for CCOc1ccccc1CCN=C1NC(=O)C(=Cc2ccc3ncccc3c2)S1
66% (inactive)

Please answer likewise for COc1ccc(C2=C(c3cn(C)c4ccccc34)C(=O)NC2=O)cc1
39.3% (inactive)
